molecular target: NADPH oxidase 2 (Homo sapiens); test: NOX2-dependent H2O2 signal modulators, primary screen, NOX inhibitor project, cell-based, HEK293-NOX2, PMA-stimulated, Amplex Red fluorescence (AID 1159); details: 45 min, higher = more signal, called active from +8 up or from −8 down; also: test concentration not given here
Tag: criterion met if measured z-score is not below -0.8, criterion not met if it is.

Example results:
compound=CC(C)NC(=O)[C@@]1(C)c2ccccc2C(=O)N(C(C)C)[C@H]1c1ccc(CO)cc1 answer_label="criterion met"
compound=Cc1ccc(S[C@]2(C(=O)NC(C)C)CC(=O)N(C3Cc4ccccc4C3)[C@@H]2c2ccc(CO)cc2I)cc1 answer_label="criterion met"
compound=COCCOC(=O)N1C(=O)[C@@]2(c3cc(C#Cc4ccc(OC)cc4)ccc31)[C@H](C(=O)N1CCCCCCC1)[C@H]1C(=O)O[C@H](c3ccccc3)[C@H](c3ccccc3)N1[C@@H]2c1ccc(O)cc1 answer_label="criterion met"
compound=CC(C)(C)OC(=O)CC[C@@]1(C(=O)O)N=C(c2ccc(OCCCO)cc2)O[C@@H]1c1ccccc1 answer_label="criterion met"
compound=COc1ccc([Si](C)(C)[C@@H]2[C@@H](CCO)O[C@]3(C(=O)N(Cc4cccc(N5C(=O)c6cccc7cccc5c67)c4)c4ccccc43)[C@H]2C)cc1 answer_label="criterion met"

Does the reported z-score for COC(=O)C1(Cc2ccccc2)C=C2C(=C(C(C)C)C(=O)C2C)CN1 (stereo not given) fall at or above the -0.8 mark?
criterion not met

Reported z-score at or above -0.8? `COc1cc2c(cc1OC)CN(C(=O)[C@H]1[C@@H]3C(=O)O[C@@H](c4ccccc4)[C@@H](c4ccccc4)N3[C@@H](c3ccc(OCCO)cc3)[C@]13C(=O)Nc1ccc(C#CC4(O)CCCCCC4)cc13)CC2`
criterion met

Hi team, for `C=CC[C@H](OC(=O)Nc1ccc(OC)cc1)c1ccc(O)c2ccccc12` , is the recorded z-score at or above -0.8?
criterion not met

Please indicate if the recorded z-score for `C=C(/C(=C/C[C@@H](OC(=O)c1ccncc1)c1ccc(OCCO)cc1)c1cc(C(=O)OC)ccc1OC)C(C)C` meets or exceeds -0.8.
criterion not met

Check this compound for z-score at or above -0.8: `CCCN1C(=O)[C@]2(Cc3ccccc3)N=C(c3ccc(OCCCO)cc3)O[C@@H]2c2ccccc21`
criterion not met

Check the entry `COC(=O)C(CC#Cc1ccc2c(c1)[C@]1(C(=O)N2)[C@H](C(=O)O)[C@H]2C(=O)O[C@H](c3ccccc3)[C@H](c3ccccc3)N2[C@@H]1c1ccccc1OCCO)C(=O)OC` : does z-score equal or exceed -0.8?
criterion met

Kindly determine if z-score recorded for CCOC(=CC(=O)OC)CC(O)c1cccc(Cl)c1 (stereo not given) is above or exactly -0.8.
criterion met

I'd appreciate it if you could say whether `O=C(CCCCCCC(=O)Nc1ccccc1)N/N=C/c1ccccc1` has z-score at least equal to -0.8.
criterion met

Kindly determine if z-score recorded for `COc1ccc([Si](C)(C)[C@H]2[C@H](CCn3cc([C@H](O)c4ccccc4)nn3)O[C@@]3(C(=O)N(Cc4ccc(N5CCC5=O)cc4)c4ccccc43)[C@@H]2C)cc1` is above or exactly -0.8.
criterion met

Say whether `CN(C)C(=O)[C@@]1(Cc2ccccc2N=[N+]=[N-])COC(c2ccc(OCCCO)cc2)=N1` shows z-score of -0.8 or more.
criterion not met

====

target: Follistatin-related protein 3 (Homo sapiens); test: FSTL3 binders on small-molecule microarrays, primary screen, biochemical, small-molecule microarray, 635 nm fluorescence (AID 1105); details: FSTL3 binding, higher = more signal;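 also: score merges emission near 667 nm and signal to noise per printed spot across three slides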
Lab note: anything with composite z-score at or over -0.03 counts as TRUE; the rest go in FALSE.

compound=COc1ccc(C#Cc2ccc3c(c2)[C@]2(C(=O)N3)[C@H](C(=O)N3CCc4cc(OC)c(OC)cc4C3)[C@H]3C(=O)O[C@H](c4ccccc4)[C@H](c4ccccc4)N3[C@@H]2c2ccc(O)cc2)cc1 answer_label=TRUE

Here's the next entry for you.
Is it the case that CCCCN1CC=CC23O[C@@H]4/C=C\CCC(C)OC(=O)C4[C@H]2C(=O)N(CCCCCCO)[C@@H]3C1=O (stereo partly specified) has composite z-score reaching or exceeding -0.03?
FALSE

====

assay: A549 cell viability effects, profiling panel, calcein-AM fluorescence, 48 h, basal (AID 1162); details: higher = more signal; also: test concentration not given here
observable: z-score

compound=C=CCN1C(=O)[C@@]2(O[C@@H](CCO)[C@H]([Si](C)(C)c3ccc(OC)cc3)[C@H]2C)c2cc(N3C(=O)c4ccccc4Oc4ccccc43)ccc21 observable=z-score endpoint_result=-3.02
compound="CC(C)C(O)C1C=CC2C(=O)N(C)C(=O)C2N1N(c1ccccc1)c1ccccc1 (stereo not drawn)" observable=z-score endpoint_result=-0.659
compound=CN(C)C(=O)[C@]1(CCC(=O)OC(C)(C)C)N=C(c2ccc(OCCCO)cc2)O[C@@H]1c1ccccc1 observable=z-score endpoint_result=1.13
compound=CN(C)CCCNC(=O)[C@@]1(c2ccc([N+](=O)[O-])cc2)CC(=O)N(CC23CC4CC(CC(C4)C2)C3)[C@@H]1c1ccc(CO)cc1 observable=z-score endpoint_result=-3.74
compound=Cc1ccc(S[C@]2(C(=O)NCC(C)C)CC(=O)N(Cc3ccccc3Cl)[C@@H]2c2ccc(CO)cc2I)cc1 observable=z-score endpoint_result=-0.0583
compound="O=C1OCC=C[C@H]2OC34C=CCN(Cn5nnc6ccccc65)C(=O)[C@H]3N(CCCCCCO)C(=O)[C@@H]4[C@@H]12 (stereo partly drawn)" observable=z-score endpoint_result=-0.4

get_value(item= `O=c1cccc(-c2cccc(Cl)c2)o1` , readout=z-score) returns -1.09

Briefly, z-score measured for COc1cc(CO)cc(I)c1O[C@H]1C=C(C(=O)NCCO)C[C@@H](N(Cc2ccc(F)cc2)C(=O)C2CCCO2)[C@@H]1O (stereo partly drawn) : 0.656

====

test: binders of probe aFSTL3 on microarray, primary screen, stem cell growth factor project, biochemical, small-molecule microarray, fluorescence 635/667 (AID 1064); conditions: higher = more signal;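 also: measures binding of the biotinylated anti-FSTL3 antibody to printed compounds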
Outcome label depends on composite z-score relative to 0.6: at/above gives class 1, below gives class 0.

These recorded examples may help you get a feel for the data.
query_smiles=C=CCOC(=O)[C@H]1[C@@H]2C(=O)O[C@@H](c3ccccc3)[C@@H](c3ccccc3)N2[C@@H](c2ccc(OCCOC(=O)[C@H]3C[C@H]4C(=O)N[C@@H](CCCC[N+](C)(C)C)C(=O)N4[C@H]3c3cccc(OCCO)c3)cc2)[C@]12C(=O)Nc1ccc(I)cc12 answer_label="class 0"
query_smiles=C=CCOC(=O)[C@@H]1[C@H]2C(=O)O[C@H](c3ccccc3)[C@H](c3ccccc3)N2[C@H](c2ccc(OCCOC(=O)[C@H]3C[C@H]4C(=O)N[C@@H](CCCC[N+](C)(C)C)C(=O)N4[C@H]3c3ccc(O)cc3)cc2)[C@@]12C(=O)Nc1ccc(I)cc12 answer_label="class 0"
query_smiles=O=C1C[C@@](C(=O)NCC(F)(F)F)(c2ccc([N+](=O)[O-])cc2)[C@@H](c2ccc(CO)cc2)N1C1CCCCC1 answer_label="class 1"

Answer whether composite z-score of `C=CCOC(=O)[C@H]1[C@@H]2C(=O)O[C@@H](c3ccccc3)[C@@H](c3ccccc3)N2[C@@H](c2ccc(OCCOC(=O)[C@H]3C[C@H]4C(=O)N[C@@H](Cc5ccccc5)C(=O)N4[C@H]3c3ccc(O)cc3)cc2)[C@]12C(=O)Nc1ccc(I)cc12` is greater than or equal to 0.6.
class 0

Please indicate if the recorded composite z-score for `CCOC(=O)[C@H]1C/C=C/C[C@H](C(=O)OCC)C(=O)O[C@H]2[C@@H](OC)O[C@H](CO)[C@@H](OC(=O)CCc3ccccc3)[C@@H]2OC1=O` meets or exceeds 0.6.
class 0

====

biological target: Pro-neuregulin-1, membrane-bound isoform (Homo sapiens); assay: NRG1 binders on small-molecule microarrays, primary screen, psychiatric disease protein project, biochemical, small-molecule microarray, fluorescence 635/667 (AID 1075); settings: NRG1 binding, 635 nm fluorescence, higher = more signal;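 also: score combines 667 nm spot fluorescence with signal to noise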
Measured composite z-score, listed per entry.
I only need the number, thanks.

Example entries and their recorded answers appear below.
compound=CN(C)C(=O)[C@@]1(Cc2ccccc2N=[N+]=[N-])COC(c2ccc(OCCCO)cc2)=N1 assayed_system="Pro-neuregulin-1, membrane-bound isoform (Homo sapiens)" endpoint_result=1.05
compound=CC(C)C(=C=CC[C@@H](O)c1ccccc1OCCO)C[C@@H](O)COCc1ccccc1 assayed_system="Pro-neuregulin-1, membrane-bound isoform (Homo sapiens)" endpoint_result=1.13
compound="O=C1OCC=C[C@H]2OC34C=CCN(c5ccc(Cl)cc5)C(=O)[C@H]3N(CCCCCO)C(=O)[C@@H]4[C@@H]12 (stereo not given in full)" assayed_system="Pro-neuregulin-1, membrane-bound isoform (Homo sapiens)" endpoint_result=-0.0571

# ---- query compound ----
Item: `O=C(O)[C@H]1C[C@H]2C(=O)N3CCC[C@H]3C(=O)N2[C@H]1c1cccc(OCCO)c1` | composite z-score: 0.337
